test system: DYRK2; conditions: concentration: 1 μM, replicates: in singlicate; n = 1;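 also: KINOMEscan kinase panel screen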
Field: %Inh. Provide a value for each of the molecules that follow.
One number for each entry, in %.

Example cases with answers are listed next.
MOL_SMILES: CN(c1ccc(NC(=O)Nc2cc(C(F)(F)F)ccc2F)cc1)c1ccnc(Nc2ccc(S(N)(=O)=O)cc2)n1
%Inh [%]: 14
//
MOL_SMILES: COc1cccc(C2=C(Nc3ccc(Cl)c(C(=O)O)c3)C(=O)NC2=O)c1
%Inh [%]: 100
//
MOL_SMILES: CNC(=O)c1ccccc1Nc1nc(Nc2ccc(N3CCOCC3)cc2)ncc1Cl.Cl
%Inh [%]: 99.1
//
MOL_SMILES: CN(C)Cc1ccc(-c2ccc3c(Nc4ccc(Oc5ccccn5)cc4)ccnc3c2)o1
%Inh [%]: 0

Query molecule follows.
## Input Request - read-out %Inh | tested on DYRK2 | molecule Nc1ncnc2c1nc(-c1ccccc1)n2-c1ccccc1
## Output 25

* * *

Field: %Inh. Provide a value for each of the compounds that follow.
system: HUNK; settings: concentration: 1 μM, replicates: in singlicate; n = 1
Give bare numbers, in %.

Example cases with answers are listed next.
COMPOUND: Cl.Cl.NCC(NCc1ccc(-c2ccnc3[nH]ccc23)s1)c1ccccc1 (centres unmarked)
RESULT_UNIT: %
VAL: 0

COMPOUND: O=C(Nc1cccc(Oc2ccc3nc(NC(=O)C4CC4)cn3n2)c1)c1ccccc1C(F)(F)F
RESULT_UNIT: %
VAL: 0

Value sought for every listed compound: %Inh.
1. COc1ccc(-c2coc3ccc(-c4nnc(SCc5ccc(OC)c(C(F)(F)F)c5)o4)cc23)cc1
2. Cc1cccc(Nc2nc(N[C@H]3CCNC3)ncc2C(N)=O)c1.Cl
3. CC(=O)N1CCN(c2ccc(Nc3nccc(-c4sc(C(C)C)nc4-c4cccc(NS(=O)(=O)c5cccc(Cl)c5)c4)n3)cn2)CC1
4. CC(=O)Nc1nc2cnc(Nc3cc(NC(=O)c4cccc(C5(C#N)CC5)c4Cl)ccc3C)nc2s1
5. c1ccc(-c2cnc3nccnn23)cc1
6. Fc1ccc(-c2ncn(C3CCNCC3)c2-c2ccnc(Oc3ccc(-c4ccccc4)cc3)n2)cc1

## Output
0
0
0
12
0
38

* * *

tested on: PRKD3; settings: concentration: 1 μM, replicates: in singlicate; n = 1
Field: %Inh. Provide a value for each of the compounds that follow.
Numbers only, in %.

COMPOUND: CN(C)S(=O)(=O)c1cc(-c2ccc3nccc(-c4cccc(S(N)(=O)=O)c4)c3c2)cnc1N [GSK1669921]
VAL: 100

Value sought for every listed compound: %Inh.
1. O=C(NC1CCN(c2ccnc(Nc3ccc(F)cc3)n2)C1)c1cc2ccccc2s1 (stereo not shown) [GSK1379716]
2. COC(=O)Nc1nc2ccc(Oc3ccc(NC(=O)Nc4cc(C(F)(F)F)ccc4F)cc3)cc2n1C.Cl [GW692089]

## Output
1: 9; 2: 5

## Input Quick check: %Inh of Nc1ncc(-c2ccc3nccc(-c4ccncc4)c3c2)cc1S(=O)(=O)N1CCOCC1 [GSK1627798] ?
## Output 0

* * *

test system: PRKG2; conditions: concentration: 1 μM, replicates: in singlicate; n = 1
READOUT_LABEL: %Inh (%)
Answers are plain numbers, in %.

Example cases with answers are listed next.
MOLECULE: COc1cccc(NC(=O)NC2CCN(c3ccnc(Nc4cc(OC)c(OC)c(OC)c4)n3)C2)c1 (stereo not drawn)
%Inh / %: 0
--
MOLECULE: O=C(Nc1n[nH]c2nc(-c3ccc(O)cc3)ccc12)C1CC1
%Inh / %: 10
--
MOLECULE: CCCCc1nn2ncccc2c1-c1ccnc(Nc2ccc(N3CCN(C)CC3)cc2)n1
%Inh / %: 4
--
MOLECULE: Cc1cccc(Nc2nc(N[C@H]3CCNC3)ncc2C(N)=O)c1.Cl
%Inh / %: 0
--
MOLECULE: O=C(Nc1cccc(Oc2ccc3nc(NC(=O)C4CC4)cn3n2)c1)c1ccccc1C(F)(F)F
%Inh / %: 0
--
MOLECULE: Cl.c1ccc(-c2ccc3c(Nc4ccc5[nH]ncc5c4)ccnc3c2)nc1
%Inh / %: 0
--
MOLECULE: CC(C)(C)c1ccc2nccc(Nc3cccc(O)c3)c2c1
%Inh / %: 4
--
MOLECULE: CNC(=O)c1ccccc1Nc1nc(Nc2ccc(N3CCOCC3)cc2)ncc1Cl.Cl
%Inh / %: 88

## Input Request - read-out %Inh | tested on PRKG2 | molecule Cc1occc1-c1ncc(OC[C@@H](N)Cc2c[nH]c3ccccc23)cc1-c1ccc2[nH]nc(C)c2c1.O=C(O)C(F)(F)F
## Output 14
